Consider the following binders and their measured pSTAT3 (nM) readings.
Target: T1, IL-23 receptor on the surface of HEK-Blue IL-23 cells (UniProt Q5VWK5 24-629, limits assumed)
T1 sequence (looked up): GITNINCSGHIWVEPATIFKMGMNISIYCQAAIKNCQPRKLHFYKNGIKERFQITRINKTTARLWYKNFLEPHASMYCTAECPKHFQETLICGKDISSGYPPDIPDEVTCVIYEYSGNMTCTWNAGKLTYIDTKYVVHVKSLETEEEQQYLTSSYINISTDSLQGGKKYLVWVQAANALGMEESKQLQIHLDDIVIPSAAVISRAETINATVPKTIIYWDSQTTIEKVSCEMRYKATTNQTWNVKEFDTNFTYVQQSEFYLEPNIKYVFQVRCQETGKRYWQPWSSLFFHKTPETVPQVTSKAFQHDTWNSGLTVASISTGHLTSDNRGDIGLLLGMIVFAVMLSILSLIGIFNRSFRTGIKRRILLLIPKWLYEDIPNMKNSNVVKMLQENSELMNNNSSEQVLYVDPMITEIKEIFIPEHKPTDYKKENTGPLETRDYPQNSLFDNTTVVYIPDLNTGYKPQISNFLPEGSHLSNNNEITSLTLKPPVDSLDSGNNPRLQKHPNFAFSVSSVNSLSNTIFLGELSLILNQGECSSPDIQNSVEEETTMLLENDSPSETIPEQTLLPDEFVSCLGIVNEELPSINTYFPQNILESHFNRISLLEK
Assay: cell-based or functional assay
Starred links: 1 amine or outer side, 2 acyl side, 3 side chain; linkers in the order of their positions; H or OH if unused. Positions of bridges follow the written chain, without caps; N, C: chain ends. Non-standard residues stand in square brackets, D forms with d. No end group written: not given here. Yde = (2S)-2-amino-3-[4-[2-(dimethylamino)ethoxy]phenyl]propanoic acid, CN(C)CCOc1ccc(C[C@H](N[*:1])C(=O)[*:2])cc1; Trp(7-Me) = Cc1cccc2c(C[C@H](N)C(=O)O)c[nH]c12; 2Nal = N[C@@H](Cc1ccc2ccccc2c1)C(=O)O; 3Pal = N[C@@H](Cc1cccnc1)C(=O)O; Dad = desamino-aspartamic acid; Lys(Me) = CNCCCC[C@H](N)C(=O)O; NMeC = CN[C@@H](CS)C(=O)O; Thp = NC1(C(=O)O)CCOCC1; Ava = NCCCCC(=O)O; Sar = CNCC(=O)O
Your answer is read as nM, so omit the unit and give the number.

Could you share which pSTAT3 (nM) value was measured for [Dad][NMeC]K[Trp(7-Me)]K(Ac)C[Yde][2Nal][Thp][Lys(Me)]N[3Pal][Sar]-NH2 (lactam 1-10; disulfide 2-6; not fully specified (residue 3); printed as Dad(§1)-Nmc(§3)(@2)-K[aAc](@3)-Wim-K[Ac]-C(@2)-Yde-Nal-Thp-Kme(§1)-N-Pal-Sar-NH2; also: Nmc2 carbonyl joined by amide bond to epsilon-NH2 of Lys3 (branched isopeptide), Lys3 alpha-NH2 acetylated) [Compound of SEQ ID NO: 74] ? 0.12

Also, [Ava]CNTWQC[Yde][2Nal][Thp]ENN-NH2 (lactam N-11; disulfide 2-7; SMILES C[C@@H](O)[C@@H]1NC(=O)[C@H](CC(N)=O)NC(=O)[C@@H]2CSSC[C@H](NC(=O)[C@H](CCC(N)=O)NC(=O)[C@H](Cc3c[nH]c4ccccc34)NC1=O)C(=O)N[C@@H](Cc1ccc(OCCN(C)C)cc1)C(=O)N[C@@H](Cc1ccc3ccccc3c1)C(=O)NC1(CCOCC1)C(=O)N[C@H](C(=O)N[C@@H](CC(N)=O)C(=O)N[C@@H](CC(N)=O)C(N)=O)CCC(=O)NCCCCC(=O)N2) [Compound of SEQ ID NO: 26] please. 3.37

Entry source: patent US20260258084A1
